- ASSAY_SYSTEM: Ba/F3-FGFR3-transfected cells (Homo sapiens, UniProt P22607)
- Sequence (P22607 whole entry, change not shown): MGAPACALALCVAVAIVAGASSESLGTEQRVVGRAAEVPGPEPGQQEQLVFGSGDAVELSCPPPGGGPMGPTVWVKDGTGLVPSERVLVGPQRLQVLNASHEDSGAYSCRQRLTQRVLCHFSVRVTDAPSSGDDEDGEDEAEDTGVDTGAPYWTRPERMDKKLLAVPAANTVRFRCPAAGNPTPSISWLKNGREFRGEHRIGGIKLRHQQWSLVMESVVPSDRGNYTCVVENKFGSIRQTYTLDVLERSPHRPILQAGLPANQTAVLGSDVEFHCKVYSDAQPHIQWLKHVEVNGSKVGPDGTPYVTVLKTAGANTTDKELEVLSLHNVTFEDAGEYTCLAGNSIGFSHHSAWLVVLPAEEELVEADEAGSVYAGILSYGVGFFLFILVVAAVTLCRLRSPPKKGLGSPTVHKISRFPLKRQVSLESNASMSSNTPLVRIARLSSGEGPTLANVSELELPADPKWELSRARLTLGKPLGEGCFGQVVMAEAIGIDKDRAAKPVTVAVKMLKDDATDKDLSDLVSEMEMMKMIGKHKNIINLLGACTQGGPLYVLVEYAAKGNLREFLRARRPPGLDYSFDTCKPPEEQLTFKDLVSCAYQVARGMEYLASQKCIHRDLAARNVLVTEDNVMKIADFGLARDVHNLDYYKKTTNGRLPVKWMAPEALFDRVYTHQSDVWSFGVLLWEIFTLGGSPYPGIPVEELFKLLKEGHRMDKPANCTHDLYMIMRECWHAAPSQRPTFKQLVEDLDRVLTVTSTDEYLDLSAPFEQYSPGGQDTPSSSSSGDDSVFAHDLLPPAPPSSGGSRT
- EXPERIMENT_NOTES: Ba/F3-FGFR3 (minus IL3) cellular proliferation assay, Alamar Blue
- Type: cell-based
- TEST_CONDITIONS: minus IL3, 384 well
OBSERVATION_TYPE: BAF3-FGFR 3 (MIN IL3) 384 well pIC50

MOLECULE	ASSAY_SYSTEM	BAF3-FGFR 3 (MIN IL3) 384 well pIC50
COc1cc(OC)cc(N(CCCO)c2ccc3ncc(-c4ccnc(NC(=O)OC(C)(C)C)c4)nc3c2)c1 [Compound 128]	Ba/F3-FGFR3-transfected cells (Homo sapiens, UniProt P22607)	<5

Task: For COc1cc(OC)cc(N(CC2CC2)c2ccc3ncc(-c4nnc(C)o4)nc3c2)c1 [Compound 85] , what is its reported BAF3-FGFR 3 (MIN IL3) 384 well pIC50?
Result: <5

###

Entries with reported IC50 on UniProt P35968
Sequence (P35968 20-1356): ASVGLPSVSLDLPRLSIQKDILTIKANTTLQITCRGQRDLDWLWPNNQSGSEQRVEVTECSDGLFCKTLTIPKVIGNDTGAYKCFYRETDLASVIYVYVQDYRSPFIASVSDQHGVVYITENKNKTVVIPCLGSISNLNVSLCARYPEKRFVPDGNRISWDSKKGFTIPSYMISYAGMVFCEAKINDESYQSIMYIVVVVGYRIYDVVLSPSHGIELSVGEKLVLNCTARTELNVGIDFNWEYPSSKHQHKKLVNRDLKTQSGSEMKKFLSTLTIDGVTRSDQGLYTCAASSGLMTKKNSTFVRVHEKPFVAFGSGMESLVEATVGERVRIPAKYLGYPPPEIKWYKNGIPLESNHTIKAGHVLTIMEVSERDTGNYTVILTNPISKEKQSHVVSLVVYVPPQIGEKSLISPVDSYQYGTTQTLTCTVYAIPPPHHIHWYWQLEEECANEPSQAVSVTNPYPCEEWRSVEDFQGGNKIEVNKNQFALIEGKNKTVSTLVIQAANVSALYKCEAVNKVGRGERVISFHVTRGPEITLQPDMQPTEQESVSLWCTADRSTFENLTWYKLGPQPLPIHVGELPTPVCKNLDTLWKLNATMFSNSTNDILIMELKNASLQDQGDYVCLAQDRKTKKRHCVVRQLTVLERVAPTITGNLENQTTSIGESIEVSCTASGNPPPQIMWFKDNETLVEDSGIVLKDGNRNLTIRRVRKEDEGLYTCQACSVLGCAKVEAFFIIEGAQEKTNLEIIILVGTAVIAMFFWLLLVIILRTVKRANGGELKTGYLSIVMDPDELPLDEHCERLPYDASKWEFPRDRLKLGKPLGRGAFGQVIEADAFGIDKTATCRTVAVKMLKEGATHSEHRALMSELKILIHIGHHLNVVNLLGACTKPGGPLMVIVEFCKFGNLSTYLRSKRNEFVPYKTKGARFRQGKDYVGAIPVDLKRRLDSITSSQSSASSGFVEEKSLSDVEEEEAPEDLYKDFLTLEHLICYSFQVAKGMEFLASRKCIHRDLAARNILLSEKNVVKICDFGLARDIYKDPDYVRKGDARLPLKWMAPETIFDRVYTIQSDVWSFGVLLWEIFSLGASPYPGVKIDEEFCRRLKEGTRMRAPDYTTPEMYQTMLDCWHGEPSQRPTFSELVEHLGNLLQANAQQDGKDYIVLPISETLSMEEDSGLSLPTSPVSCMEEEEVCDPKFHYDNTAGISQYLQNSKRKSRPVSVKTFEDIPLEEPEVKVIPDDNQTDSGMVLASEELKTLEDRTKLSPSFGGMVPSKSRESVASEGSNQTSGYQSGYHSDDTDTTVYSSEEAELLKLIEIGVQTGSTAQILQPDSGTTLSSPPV

Reference set (4 entries):
STRUCTURE_STRING	IC50
COc1cc(OC)cc(N(CC2CC2)c2ccc3ncc(-c4cnn(C)n4)nc3c2)c1	> 1000 nM
COc1cc(OC)cc(N(CCCNCC(F)(F)F)c2ccc3ncc(C(=O)NCCN4CCOCC4)nc3c2)c1	> 1000 nM
COc1cc(OC)cc(N(CC2CC2)c2ccc3ncc(-n4ccc(C)n4)nc3c2)c1	> 1000 nM
COc1cc(OC)cc(N(CC2CC2)c2ccc3ncc(-n4cccn4)nc3c2)c1	> 10000 nM

Task: Bench note: what IC50 did COc1cc(OC)cc(N(CCO)c2ccc3ncc(/C(C)=N/OC(C)(C)C)nc3c2)c1 show?
Result: > 1000 nM

Task: Same read-out for CNC(=O)c1cc(-c2cnc3ccc(N(CCCNCC(F)(F)F)c4cc(OC)cc(OC)c4)cc3n2)ccn1 ?
Result: > 1000 nM

###

- ASSAY_SYSTEM: FGFR1 (h) (Homo sapiens)
- EXPERIMENT_NOTES: FGFR1 (enzymatic assay), TR-FRET
- Format: biochemical
- TEST_CONDITIONS: read-out: FGFR 1 pIC50 (converted)
OBSERVATION_TYPE: IC50 (nM)

Completed entries (count: 5):
MOLECULE	VALUE_UNITS	ENDPOINT_RESULT
COc1cc(OC)cc(N(CC2CC2)c2ccc3ncc(-c4nccs4)nc3c2)c1 [Compound 97]	nM	575
CNC(=O)c1cc(-c2cnc3ccc(N(CCNCC(F)(F)F)c4cc(OC)cc(OC)c4)cc3n2)ccn1 [Compound 113]	nM	85.1
COc1cc(OC)cc(N(CCNC(C)C)c2ccc3ncc(-c4ccc(N5CCOCC5)nc4)nc3c2)c1 [Compound 168]	nM	0.955
COc1cc(OC)cc(N(CCO)c2ccc3ncc(-c4ccc(N5CCN(C(=O)OC(C)(C)C)CC5)cc4)nc3c2)c1 [Compound 156]	nM	45.7
COc1cc(OC)cc(N(CC2CC2)c2ccc3ncc(-c4ccc5c(c4)OCO5)nc3c2)c1 [Compound 87]	nM	617

A = COc1cc(OC)cc(N(CCNC(C)C)c2ccc3ncc(-c4ccccc4)nc3c2)c1 [Compound 121]
B = COc1cc(OC)cc(N(CCCO)c2ccc3ncc(-c4ccnc(N)c4)nc3c2)c1 [Compound 66]
Task: IC50 comparison. Which is larger, A or B ? Let me know the label of the one you choose.
Result: B

###

- ASSAY_SYSTEM: Ba/F3-FGFR1-transfected cells (Homo sapiens, UniProt P11362)
- Sequence (P11362 whole entry, change not shown): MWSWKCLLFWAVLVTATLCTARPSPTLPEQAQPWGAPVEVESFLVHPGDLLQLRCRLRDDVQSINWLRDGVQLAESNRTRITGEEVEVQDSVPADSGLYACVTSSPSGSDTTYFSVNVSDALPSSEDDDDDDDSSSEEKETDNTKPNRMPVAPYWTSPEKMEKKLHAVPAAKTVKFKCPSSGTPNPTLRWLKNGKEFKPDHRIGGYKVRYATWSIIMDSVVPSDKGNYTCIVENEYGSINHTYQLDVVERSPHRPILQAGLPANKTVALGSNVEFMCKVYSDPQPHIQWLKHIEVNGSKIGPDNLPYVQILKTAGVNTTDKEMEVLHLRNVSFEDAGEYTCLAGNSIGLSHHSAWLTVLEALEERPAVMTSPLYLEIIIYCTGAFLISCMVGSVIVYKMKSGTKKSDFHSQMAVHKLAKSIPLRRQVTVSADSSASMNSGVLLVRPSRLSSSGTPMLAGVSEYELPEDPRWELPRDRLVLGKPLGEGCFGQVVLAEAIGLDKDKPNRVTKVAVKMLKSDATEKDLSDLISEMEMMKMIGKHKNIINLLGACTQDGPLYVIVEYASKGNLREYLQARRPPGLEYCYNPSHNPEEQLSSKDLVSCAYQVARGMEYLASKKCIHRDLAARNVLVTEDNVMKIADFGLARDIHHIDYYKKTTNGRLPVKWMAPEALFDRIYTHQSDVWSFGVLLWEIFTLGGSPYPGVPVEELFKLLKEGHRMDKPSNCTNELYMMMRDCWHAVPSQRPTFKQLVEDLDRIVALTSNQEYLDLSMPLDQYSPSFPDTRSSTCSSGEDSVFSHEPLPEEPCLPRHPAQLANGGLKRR
- EXPERIMENT_NOTES: Ba/F3-FGFR1 (minus IL3) cellular proliferation assay, Alamar Blue
- Assay type: cell-based
- TEST_CONDITIONS: minus IL3, 384 well
OBSERVATION_TYPE: BAF3-FGFR 1 (MIN IL3) 384 well pIC50

COMPOUND	BAF3-FGFR 1 (MIN IL3) 384 well pIC50
COc1cc(OC)cc(N(CCNC(C)C)c2ccc3ncc(C(=O)NCCCN4CCCCC4)nc3c2)c1 [Compound 182]	5.89
COc1cc(OC)cc(N(CCCO)c2ccc3ncc(-c4ccnc(C(=O)N5CCOCC5)c4)nc3c2)c1 [Compound 43]	6.28
CNc1ccc(-c2cnc3ccc(N(CCCO)c4cc(OC)cc(OC)c4)cc3n2)cn1 [Compound 116]	5.9
COc1cc(OC)cc(N(CCN)c2ccc3ncc(-c4ccn(C)c4)nc3c2)c1 [Compound 79]	6.9
COc1cc(OC)cc(N(CCCO)c2ccc3ncc(-c4cccnc4)nc3c2)c1 [Compound 112]	6.11

###

# BAF3-FLT3 (MIN IL3) 96 well pIC50 values compiled below
- ASSAY_SYSTEM: Ba/F3-Flt3-transfected cells (Homo sapiens, UniProt P36888, cells depend on it, form not given)
- Sequence (P36888 1-993): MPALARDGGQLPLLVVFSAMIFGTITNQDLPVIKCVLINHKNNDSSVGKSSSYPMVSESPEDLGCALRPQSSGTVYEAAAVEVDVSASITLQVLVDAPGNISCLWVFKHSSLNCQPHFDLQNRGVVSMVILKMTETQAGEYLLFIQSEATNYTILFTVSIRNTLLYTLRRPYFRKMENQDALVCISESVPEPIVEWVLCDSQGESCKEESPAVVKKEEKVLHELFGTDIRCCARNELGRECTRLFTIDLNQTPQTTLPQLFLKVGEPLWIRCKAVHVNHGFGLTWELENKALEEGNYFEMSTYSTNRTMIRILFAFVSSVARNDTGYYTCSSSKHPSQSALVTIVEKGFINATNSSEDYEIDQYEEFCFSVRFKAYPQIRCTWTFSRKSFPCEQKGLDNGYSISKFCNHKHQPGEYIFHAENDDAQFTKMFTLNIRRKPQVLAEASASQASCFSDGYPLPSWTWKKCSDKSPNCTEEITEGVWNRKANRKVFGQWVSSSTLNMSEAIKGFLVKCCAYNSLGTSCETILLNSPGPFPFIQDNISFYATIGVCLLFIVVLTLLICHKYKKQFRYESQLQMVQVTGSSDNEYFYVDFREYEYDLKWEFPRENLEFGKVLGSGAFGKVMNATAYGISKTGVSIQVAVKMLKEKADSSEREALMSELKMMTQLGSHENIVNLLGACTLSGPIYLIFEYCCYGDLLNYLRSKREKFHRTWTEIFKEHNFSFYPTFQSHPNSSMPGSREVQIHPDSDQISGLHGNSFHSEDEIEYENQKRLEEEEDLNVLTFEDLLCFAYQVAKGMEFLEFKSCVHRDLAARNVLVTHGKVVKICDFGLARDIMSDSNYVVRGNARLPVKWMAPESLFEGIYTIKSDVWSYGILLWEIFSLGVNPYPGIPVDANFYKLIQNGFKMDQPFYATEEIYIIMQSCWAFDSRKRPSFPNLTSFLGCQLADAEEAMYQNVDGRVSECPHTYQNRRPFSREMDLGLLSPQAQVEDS
- EXPERIMENT_NOTES: Ba/F3-Flt3 (minus IL3) cellular proliferation assay, Alamar Blue
- Type: cell-based
- TEST_CONDITIONS: minus IL3

Guide cases for BAF3-FLT3 (MIN IL3) 96 well pIC50, answers given:
COMPOUND	BAF3-FLT3 (MIN IL3) 96 well pIC50
COc1cc(OC)cc(N(CC2CC2)c2ccc3ncc(-c4cnnn4C)nc3c2)c1 [Compound 72]	<5
COc1cc(OC)cc(N(CC2CC2)c2ccc3ncc(Nc4nccs4)nc3c2)c1 [Compound 98]	<5
COc1cc(OC)cc(N(CC2CC2)c2ccc3ncc(-c4nccn4C)nc3c2)c1 [Compound 60]	<5

Task: I am curious: what BAF3-FLT3 (MIN IL3) 96 well pIC50 value has been reported for COc1cc(OC)cc(N(CC2CC2)c2ccc3ncc(-c4cn[nH]n4)nc3c2)c1 [Compound 69] ?
Result: <5

Task: Also, COc1cc(OC)cc(N(CC2CC2)c2ccc3ncc(C(=O)NCc4ccc(F)cc4)nc3c2)c1 [Compound 101] please.
Result: <5

Task: Now this one: CCOC(=O)c1ncn(-c2cnc3ccc(N(CC4CC4)c4cc(OC)cc(OC)c4)cc3n2)c1C [Compound 65]
Result: <5

Task: Same read-out for COc1cc(OC)cc(N(CC2CC2)c2ccc3ncc(N4CCN(CCO)CC4)nc3c2)c1 [Compound 49] ?
Result: 5.2

###

Each item that follows carries a reported BAF3-FLT3 (MIN IL3) 384 well pIC50.
- ASSAY_SYSTEM: Ba/F3-Flt3-transfected cells (Homo sapiens, UniProt P36888, cells depend on it, form not given)
- Sequence (P36888 1-993): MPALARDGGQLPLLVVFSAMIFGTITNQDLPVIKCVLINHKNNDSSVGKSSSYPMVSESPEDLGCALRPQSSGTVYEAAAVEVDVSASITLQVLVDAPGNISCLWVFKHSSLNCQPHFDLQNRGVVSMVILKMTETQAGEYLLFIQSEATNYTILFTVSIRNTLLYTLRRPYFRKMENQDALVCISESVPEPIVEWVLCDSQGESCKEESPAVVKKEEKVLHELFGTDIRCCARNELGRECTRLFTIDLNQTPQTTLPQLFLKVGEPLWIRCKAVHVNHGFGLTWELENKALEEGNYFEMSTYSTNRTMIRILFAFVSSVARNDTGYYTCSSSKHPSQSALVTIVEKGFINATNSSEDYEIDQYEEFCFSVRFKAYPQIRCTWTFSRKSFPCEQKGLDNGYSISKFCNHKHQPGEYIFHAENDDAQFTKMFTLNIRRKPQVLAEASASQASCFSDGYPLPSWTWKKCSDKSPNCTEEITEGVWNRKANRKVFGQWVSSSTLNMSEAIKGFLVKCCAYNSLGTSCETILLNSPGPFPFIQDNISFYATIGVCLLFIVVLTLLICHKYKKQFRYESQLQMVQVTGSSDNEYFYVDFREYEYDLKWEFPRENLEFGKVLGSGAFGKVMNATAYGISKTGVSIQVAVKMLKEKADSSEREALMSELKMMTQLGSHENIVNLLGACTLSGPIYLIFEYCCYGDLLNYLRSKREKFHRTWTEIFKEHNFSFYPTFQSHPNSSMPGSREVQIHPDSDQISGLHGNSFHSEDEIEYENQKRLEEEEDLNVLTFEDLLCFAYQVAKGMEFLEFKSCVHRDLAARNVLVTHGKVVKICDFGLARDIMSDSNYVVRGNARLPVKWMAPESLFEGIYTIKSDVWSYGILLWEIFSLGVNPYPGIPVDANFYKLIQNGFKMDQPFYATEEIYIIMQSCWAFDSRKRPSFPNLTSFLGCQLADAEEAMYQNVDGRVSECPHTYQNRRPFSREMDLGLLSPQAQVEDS
- EXPERIMENT_NOTES: Ba/F3-Flt3 (minus IL3) cellular proliferation assay, Alamar Blue
- Assay type: cell-based
- TEST_CONDITIONS: minus IL3

Below, 8 molecules whose answers are already recorded.
MOLECULE	OBSERVATION_TYPE	ENDPOINT_RESULT
COc1cc(OC)cc(N(CC#Cc2ncccc2OC)c2ccc3ncc(-c4cccnc4)nc3c2)c1	BAF3-FLT3 (MIN IL3) 384 well pIC50	5.04
COc1cc(OC)cc(N(CC2CC2)c2ccc3ncc(-c4nnn[nH]4)nc3c2)c1	BAF3-FLT3 (MIN IL3) 384 well pIC50	<5
COc1cc(OC)cc(N(CC2CC2)c2ccc3ncc(-n4ccc(C)n4)nc3c2)c1	BAF3-FLT3 (MIN IL3) 384 well pIC50	<5
COc1cc(OC)cc(N(CC2CC2)c2ccc3ncc(-c4ccn(C)c4)nc3c2)c1	BAF3-FLT3 (MIN IL3) 384 well pIC50	5.03
COc1cc(OC)cc(N(CCO)c2ccc3ncc(-c4ccc(N5CCN(C(=O)OC(C)(C)C)CC5)cc4)nc3c2)c1	BAF3-FLT3 (MIN IL3) 384 well pIC50	<5
COc1cc(OC)cc(N(CCNC(C)C)c2ccc3ncc(N4CCC(CN)CC4)nc3c2)c1	BAF3-FLT3 (MIN IL3) 384 well pIC50	5
CNC(=O)c1cc(-c2cnc3ccc(N(CCCNCC(F)(F)F)c4cc(OC)cc(OC)c4)cc3n2)ccn1	BAF3-FLT3 (MIN IL3) 384 well pIC50	<5
COc1cc(OC)cc(N(CCN2CCN(C(C)=O)CC2)c2ccc3ncc(-c4ccc(N)nc4)nc3c2)c1	BAF3-FLT3 (MIN IL3) 384 well pIC50	<5

Task: Give the measured BAF3-FLT3 (MIN IL3) 384 well pIC50 of COc1cc(OC)cc(N(CC2CC2)c2ccc3ncc(-c4ccc(N)nc4)nc3c2)c1 .
Result: <5

Task: Now give it for COc1cc(OC)cc(N(CC2CC2)c2ccc3ncc(-n4cnc(C)c4)nc3c2)c1 too.
Result: <5

Task: Could you do the same for COc1cc(OC)cc(N(CCNC(C)C)c2ccc3ncc(C(=O)N4CCN(C)CC4)nc3c2)c1 , please?
Result: <5

Task: Would you kindly repeat that for COc1cc(OC)cc(N(CCNC(C)C)c2ccc3ncc(-c4cccnc4)nc3c2)c1 ?
Result: ~5.01

Task: Next molecule: CNc1ccc(-c2cnc3ccc(N(CCCO)c4cc(OC)cc(OC)c4)cc3n2)cn1
Result: <5

Task: Can you handle COc1cc(OC)cc(N(CCCNCC(F)(F)F)c2ccc3ncc(C(=O)NCCN4CCOCC4)nc3c2)c1 next?
Result: <5

Task: Next: COc1cc(OC)cc(N(CC2CO2)c2ccc3ncc(-c4ccc(N)nc4)nc3c2)c1 (stereo not drawn)
Result: 5.04

Task: Let us now turn to COc1cc(OC)cc(N(CC2CC2)c2ccc3ncc(Nc4nccs4)nc3c2)c1
Result: <5

Task: Item: COCCN(c1cc(OC)cc(OC)c1)c1ccc2ncc(-c3ccn(C)c3)nc2c1
Result: <5

Task: And COc1cc(OC)cc(N(CCCNC(C)C)c2ccc3ncc(-c4ccnc(NC(=O)NC(C)C)c4)nc3c2)c1 ?
Result: 5.5

Values were extracted from patent US10052320B2.
